Hi there, I'd appreciate the recorded EC50 for every entry that follows.
Test system: Chikungunya virus
assayName: Antiviral activity against Chikungunya virus Indian ocean strain 899 infected in African green monkey Vero A cells assessed as reduction in viral-induced cytopathic effect after 6 to 7 days by MTS/PMS assay
Format: functional, organism-based
statedConditions: Indian ocean strain 899, Vero

Retrieve EC50 measured for CCCCC/C=C/C=C\C(=O)O[C@@H]1[C@@H](C)[C@@]2(O)[C@@H](C(=O)C(CO)=C[C@]3(O)C(=O)C(C)=C[C@@H]23)[C@@H]2C(C)(C)[C@]12OC(=O)C(C)C and print it.
4500 nM

Retrieve EC50 measured for CCCCC/C=C\C=C\C(=O)O[C@@H]1[C@@H](C)[C@@]2(O)[C@@H](C=C(CO)C[C@]3(O)C(=O)C(C)=C[C@@H]23)[C@@H]2C(C)(C)[C@]12OC(=O)C(C)CC (some centres undefined) and print it.
< 800 nM

Retrieve EC50 measured for CCCCC/C=C\C=C\C(=O)O[C@@H]1[C@@H](C)[C@@]2(O)[C@@H](C=C(CO)C[C@]3(O)C(=O)C(C)=C[C@@H]23)[C@@H]2C(C)(C)[C@]12OC(=O)C(C)C and print it.
< 800 nM

Retrieve EC50 measured for CCCCC/C=C/C=C\C(=O)O[C@@H]1[C@@H](C)[C@@]2(O)[C@@H](C=C(CO)C[C@]3(O)C(=O)C(C)=C[C@@H]23)[C@@H]2C(C)(C)[C@]12OC(=O)C(C)C and print it.
< 800 nM
